The following sequences are shown together with reported soluble fraction (log2) values.
- protocol.text: soluble fraction after stress (log2 fold change); higher = more stays soluble; pooled small domains, quantitative proteomics
- assay.conditions: stress: pH 4

{"columns": ["sequence.string", "soluble fraction (log2)"],
 "data": [
  ["HMNEIYHQIKVDNVSDDDISLFQYSGIEFDHADYRRGEYIEFAISNRDLSILNNLGYEYQVVHH", -1.07],
  ["HMSEQVQLQAQVEDDLIGKRLDQVVAQLFPDYSRSRLQGWIKDGSLTVDGESRRPRDKMMGGEVVRVEATL", -0.347],
  ["HMGTGELLVHVIGAVHSPGVVRLPTGARVVDAIDAAGGAREDAQTEQLNLARLVDDGEQVRVPVVGESVD", 0.00081],
  ["HMDQPLIEPLSERELEVLSLIAAGYSNAEIAERLVIAVGTVKRHINNLYGKLGAGSRTQALAIAREIGLM", -0.661],
  ["HMHQAVTVTKPARLFTGPDGKGVVRSLDVGMMLYPTGEKQGMMWEVEDELGNKGWVSSTLLELS", 0.197],
  ["HMAQLPADMSRVKSADVSDAQLREFVQKAQASGQTETQLFREFSRRGMPTNEINILRSRMVGLQNN", 0.0928],
  ["HMNKELVVPDLTDMRVKDAEFEAHQVGMRTEIVDSVYVRRLKRGYVYKQNPVPGSKVKKGRRIALTINAV", 0.1],
  ["HMTAMDTQQKKLIIMYHDIHRLRNVEHFTIQRIADHLLLNFRTVKKFLEMTQEEFDKFSENRW", -0.0481],
  ["HMKRMSKKQLSAVIEKYFSSQPGVTLTLKDIFRNLHLDTHPLKMIALDILEEMSWDDVIMKVSDTSYALNT", "2.81e-05"],
  ["HMLDLPVRTINGRQYYYYEVRNRETVYGLSKRLGVTREEIVRYNPSMADGLKRGAILYFPVDEFSDRI", -0.0139],
  ["HMSVPVDEVLAALTQKLTDLRTQAMAAKDFSAVDALKAALTEAGVEVRMSKTGVELIAGPRVDAKKLGTL", -0.268],
  ["HMFMKNTEVALAIKGKFSNQTTITSKELVLFLSDLFPELSNKTIPWKINQLKAENLIYQTGRGIYTFN", -0.809],
  ["HMVIREVNDNPVSAEELRLGDRVKVLSLGQNGEIVTLPDEKGELTVQVGILKAKVNLDDIMLI", 0.0234],
  ["HMGKTTQEIEERSSTSTLTLTQTPKEIISVQGKKSDQSFFTNIQYTQNGKVIVPKQTGIYDTIKVVFTVSL", -0.256],
  ["HMDPTHDMHFLVKDQVTGQPLPNMPYRLQLDNGQTLTGRTDALGMTEKISGHSPHIASIEVPY", 0.025],
  ["HMSVYIGVDQAKSIAAEHAGLSNSAVTFSKAKLENDDGMTVYEVEFFYQGTEYDYKIDASTGSILEYDLDR", -0.0157],
  ["HMDVNLSIRSGETIGIIGSTGSAKSTLVQLIPRLYDTTEGEVLVGGVNVKNYDLEALRNSVAMVLQKN", -0.155],
  ["HMRRSKVMLESILDEIPQMGQARRAALLEQFGSVAALRKASLAEIAMTPGIGEKIAVIIFEYLQKSSH", -0.067],
  ["HMQSLIVPVPKPEDDPVYKDGIKQDPVEVVSIWLGRDYLNMILNLKVSTGKGHTFGIVEDVS", -0.383],
  ["HMDDFGERLRKLRVAQDLTQQQLGEKLGVVPSTIGKYEKVKDSYPSIEVLIKLSDFFSVSTDYLLKG", -0.905],
  ["HMNKYNNIEDLKEEDFENISEKYQVPVSFVKSKLDDLINWHEKNPQKNHYKNYLSALRDWVKRDSLKIKL", 0.0178],
  ["HMLDSPHDDLNRKIVQMLQNDGRLPYKDIAEVLSVSEGTVRNRVQRMRDAGMLNIVALIDPMAI", -0.498],
  ["HMSATPQRMSIINELDSARKNLSAYDLRDSLKDKGHSFNISTIYRVLSFWIDVGVVHKMDSSNTYL", -0.315],
  ["HMRKVTDTHELSSVVKSVIDQWEEKAAEYRAGKSGLLGFFVGEVMKKTGGAADPEAAKSLLQDRLD", -0.285],
  ["HMQNWFADPKFEMFEDYGDAQSFYDTETKNIYVVMAEYGQKGSNTIQEITPDSEEYIPNYEKYKEYMENK", -1.42],
  ["HMEVPFRNAAIFKTRSGDYAIRASYDGVDLGIKPIEKSTARTYFQLTDVKDKESFLNMTARNQYESEIAGI", 0.153],
  ["HMKNVEEMILGKLKRKVSENLENASFEEIILVDAEKSVYKGIIKANYIEYYFRVNLSTGEVLSWKLK", -0.755],
  ["HMPPNRDDEHLQALRDYYAANRRIPSLQRVASLLGFSSRSAAVKLMGRLADEGFIERTADDDAWITGKRFF", -0.371],
  ["HMETVSFNPDIAVIPDYRHVVILGETTKTIANKYDIPVDILKAANPGLGNNVTKGDRLRVPDKTKLQ", -0.0151],
  ["HMGEIHALIPGLVSRLFVKPGDRVENGQGLLILEAMKMENEIDSPISGVVGKIYIKAGDKVEKGELIMEIN", 0.115],
  ["HMKYTEEIFNILSRGGFISANSVSSTVKRYYDALEEDFTEYYDYYKGIGFYLEAGNGYYLFTR", -0.064],
  ["HMYTDGVPALTDLKKESKPGRRQYVGVEDIPKVLGGLGITILSTSKGLMSGHQAKKKNIGGELIASV", -0.0153],
  ["HMEDMMKALLDVVRAQHTATEGSEERPFDINDIIDMALNITGRPEEPEEQQELSDTIQKLAESLAPDIFP", -0.596]
]}

###

- protocol.text: soluble fraction after stress (log2 fold change); higher = more stays soluble; pooled small domains, quantitative proteomics
- assay.conditions: stress: pH 4
I would appreciate it if you labelled entries t when soluble fraction (log2) is 0.01 or higher, otherwise f.

{"columns": ["sequence.string", "group"],
 "data": [
  ["HMSSYMQMQLERLESLLQKNDLTDSDKYDIRQLVEDLDKVPESVSPNLVGAYMTIKNRYASVLKTVL", "f"],
  ["HMGPYGAGSAAPAEDGSGPEGWTVKGNAKSMLYHTEGSPYYGRTNADVWFRDEESAEAAGFRRWDRK", "t"],
  ["HMFEARNTTFSEDGKTITETYGVKRIETEFVSDSTIVQKLYDNDVLTKTKTITFSADGLSIKEDV", "f"],
  ["HMGRQVTVPNVTGMLVEEARAAISEAELWVDSPRAVQGEVTRQEPARGERLSPGQEVRIYTES", "f"],
  ["HMGESVQVPSYVGMGFREAARKARARDFGVAVSDSIYVPGKPPGEIIAQDPKAESRVKEGRTIYFTVAK", "f"],
  ["HMNRITEFVVPEGTKKIRADKLLAESFPDHSRSDFHRAFDASLVRLEGQPISKNRKISQGDVLVFEMPEI", "f"],
  ["HMQYKTRVINLSILEVGMVLGRDLINKDGKIIVKKDVAISDFLKDHLIGLSKIKEIEPQIYIKV", "f"],
  ["HMFKDVTVPSVINKTEAEATNMLKGLNLVVSVEYEENANKSDGIVTAQNVNANKVIKEGETVTITVNKQP", "t"],
  ["HMDDVVVLPFTAEFARMSSDDFVREILVGKIGMKRFVVGYNHRFGSGQQGDFASLQRMQGELGFVAVRVG", "f"],
  ["HMDFVKGDTVVFIDAFMPDHLMTIHKVQGEGILLDGNHKFALAHLIRHASTVELNAKRRLSLTEQS", "f"],
  ["HMETINERVNSIIEREGHTVATFAKKIGVPWTTIKNIVSGRNAPSYDIMVKIINAVDWVDANYLVMG", "f"],
  ["HMLSVLKNVDVNSLSDDKIKTYWQQIQKSGYTLDEVEVLAEAQGISPLKIAAFKRRVQSLQQSLQT", "f"],
  ["HMVSEASELTDTINKIGSLAQALVGANKLSKTDLVGIIKKYHTSANYNSITDIGVAKNILAELEAKN", "f"],
  ["HMDLHERISSVLLGTGKSNDELAQILGVNKNTISAYKNKHGDLKGIVLEGIVKHFDINPVWLLTGSGTR", "t"],
  ["HMNEIDLEAAKRIALQNAGVESADAAFTKAQLDYDDGVAEYEIEFVAGSTKYEYEISAANGTVLKSSKESV", "t"],
  ["HMRAFTPSEAQVAHARRVMEAFWQHQREGHGAFALDGKMVDAPIVKAAARVLARAGLQDPNHPIHLA", "t"],
  ["HMKVELSENEKIIYDLLSNQEVLLSEIKDKAELSNKAWDKSTKSLRKLGLVIVEKKDDNIYISKS", "t"]
]}
